Assay: In vivo toxicity, C. elegans survival
Details: N2, Caenorhabditis elegans, in vivo, other: exposure in complete S medium in 96-well plate, 200 µM, 7 days incubation, read-out: viability (living individuals)
measurementName: viability at 7 days, 200 µM (%)
Write down the numeric answer in % and omit the unit.

Data request: Sample "Cc1ccc(-c2cc(C(F)(F)F)nn2-c2ccc(S(N)(=O)=O)cc2)cc1" — what was its viability at 7 days, 200 µM?
Data returned: 60

* * *

Assay: Neutral red (NR) cytotoxicity assay
Format: cell-based, human
Settings: human, HaCaT immortalized keratinocytes, 50 µM, 24 h, NR assay
measurementName: viability at 24 h, 50 µM

Data request: Sample "Cc1ccc(-c2cc(C(F)(F)F)nn2-c2ccc(S(N)(=O)=O)cc2)cc1" — what was its viability at 24 h, 50 µM?
Data returned: ~65%

* * *

Test system: C. elegans
Test: In vivo toxicity, C. elegans survival
Settings: Caenorhabditis elegans, data from our studies
Description: Nematodes wild-type culture (strain N2) was maintained at 20 °C on NGM agar plates with bacteria Escherichia coli OP50 as food source. C. elegans culture was synchronized by treatment with hypochlorite. […] Subsequently the density of nematodes suspension was assessed according to Scanlan et al.. […] Live (moving and curling) and dead nematodes were counted every day with an inverted microscope with contrast phase (Delta Optical IB-100). […]
measurementName: IC50 (µM)
Write down the numeric answer in µM and omit the unit.

Data request: Sample "COC(=O)Nc1nc2ccc(C(=O)c3ccccc3)cc2[nH]1" — what was its IC50?
Data returned: 4
